System: U-343 and SH-SY5Y cells
Assay: β-Amyloid ELISA, secreted β-amyloid peptides 1-40 and 1-42
Format: cell-based
Settings: Homo sapiens, inhibitor 20 μM, 24 hours, conditioned medium, untreated cells = 100%, cell line and peptide (1-40/1-42) not given, read-out: Extracellular Aβ-concentration, % of control
Procedure: The human glioma cell line, U-343 and the human neuroblastoma cell line, SH-SY5Y were maintained in Dulbecco's modified Eagle's medium (DMEM) containing 10% fetal bovine serum (Gibco BRL, Karlsruhe, Germany) and incubated at 37° C. in a 5% CO2 atmosphere. […] To quantify intracellular and extracellular concentrations of 0-amyloid peptides, 1-40 and 1-42, U-343 and SH-SY5Y cells were cultured in 6 well plates (1.5×10^6 cells/well) and treated with specific PEP inhibitors (20 μM each) for 24 hours. […]
measurement.type: activity at 20 µM (%)
Could you give me the number in %? Just the number is fine.

// assay U-343 and SH-SY5Y cells, entry O=C(OCCc1ccccc1Cl)c1ccccc1C(=O)c1cccs1 [Example 26] , activity at 20 µM value = 207

// assay U-343 and SH-SY5Y cells, entry O=C(OCCc1cccc(Cl)c1)c1ccccc1C(=O)c1cccs1 [Example 12] , activity at 20 µM value = 191

// assay U-343 and SH-SY5Y cells, entry O=C(OCc1cccc([N+](=O)[O-])c1)c1ccccc1C(=O)c1cccs1 [Example 22] , activity at 20 µM value = 153

// assay U-343 and SH-SY5Y cells, entry O=C(OCCc1cc2ccccc2s1)c1ccccc1C(=O)c1cccs1 [Example 24] , activity at 20 µM value = 165

// assay U-343 and SH-SY5Y cells, entry O=C(OCc1ccc(Cl)cc1)c1ccccc1C(=O)c1cccs1 [Example 19] , activity at 20 µM value = 195

---

Field: activity at 20 µM. Provide a value for each of the molecules that follow.
Tested on: U-343 and SH-SY5Y cells
Test: β-Amyloid ELISA, secreted β-amyloid peptides 1-40 and 1-42
Type: cell-based
Settings: Homo sapiens, inhibitor 20 μM, 24 hours, conditioned medium, untreated cells = 100%, cell line and peptide (1-40/1-42) not given, read-out: Extracellular Aβ-concentration, % of control

// activity at 20 µM lookup, molecule = O=C(OCCc1ccccc1)c1ccccc1C(=O)c1cccs1 [Example 2] , result: 214%

// activity at 20 µM lookup, molecule = O=C(OCCc1ccc2ccccc2c1)c1ccccc1C(=O)c1cccs1 [Example 8] , result: 165%

// activity at 20 µM lookup, molecule = COc1cccc(COC(=O)c2ccccc2C(=O)c2cccs2)c1 [Example 18] , result: 106%

// activity at 20 µM lookup, molecule = O=C(NCCc1ccccc1)c1ccccc1C(=O)c1cccs1 [Example 30] , result: 205%

// activity at 20 µM lookup, molecule = O=C(OCc1ccc([N+](=O)[O-])cc1)c1ccccc1C(=O)c1cccs1 [Example 3] , result: 141%

// activity at 20 µM lookup, molecule = O=C(OCCCc1ccccc1)c1ccccc1C(=O)c1cccs1 [Example 11] , result: 192%

---

System: U-343 and SH-SY5Y cells
Experiment: β-Amyloid ELISA, secreted β-amyloid peptides 1-40 and 1-42
Type: cell-based
Settings: Homo sapiens, inhibitor 20 μM, 24 hours, conditioned medium, untreated cells = 100%, cell line and peptide (1-40/1-42) not given, read-out: Extracellular Aβ-concentration, % of control
# note: boundary value 200% maps to 0; activity at 20 µM below it maps to 1

**Q:** # TODO verify activity at 20 µM < 200% strictly for this compound: O=C(OCCc1ccsc1)c1ccccc1C(=O)c1cccs1
**A:** 0

**Q:** # TODO verify activity at 20 µM < 200% strictly for this compound: O=C(OCc1cccc(Cl)c1)c1ccccc1C(=O)c1cccs1
**A:** 1

**Q:** # TODO verify activity at 20 µM < 200% strictly for this compound: Cc1cccc(CCOC(=O)c2ccccc2C(=O)c2cccs2)c1
**A:** 0

**Q:** # TODO verify activity at 20 µM < 200% strictly for this compound: O=C(OCN1C(=O)c2ccccc2C1=O)c1ccccc1C(=O)c1cccs1
**A:** 1

**Q:** # TODO verify activity at 20 µM < 200% strictly for this compound: O=C(NCCc1ccccc1)c1ccccc1C(=O)c1ccco1
**A:** 1

**Q:** # TODO verify activity at 20 µM < 200% strictly for this compound: O=C(OCc1ccccc1Cl)c1ccccc1C(=O)c1cccs1
**A:** 0

**Q:** # TODO verify activity at 20 µM < 200% strictly for this compound: O=C(OCCc1ccccc1)c1ccccc1C(=O)c1ccco1
**A:** 1

**Q:** # TODO verify activity at 20 µM < 200% strictly for this compound: O=C(OCc1ccccc1[N+](=O)[O-])c1ccccc1C(=O)c1cccs1
**A:** 0

**Q:** # TODO verify activity at 20 µM < 200% strictly for this compound: O=C(OCc1ccco1)c1ccccc1C(=O)c1cccs1
**A:** 1

**Q:** # TODO verify activity at 20 µM < 200% strictly for this compound: Cc1ccc(CCOC(=O)c2ccccc2C(=O)c2cccs2)cc1
**A:** 1

**Q:** # TODO verify activity at 20 µM < 200% strictly for this compound: O=C(OCCc1ccc([N+](=O)[O-])cc1)c1ccccc1C(=O)c1cccs1
**A:** 1

**Q:** # TODO verify activity at 20 µM < 200% strictly for this compound: O=C(NCc1ccccc1)c1ccccc1C(=O)c1cccs1
**A:** 1

**Q:** # TODO verify activity at 20 µM < 200% strictly for this compound: O=C(OCCN1C(=O)c2ccccc2C1=O)c1ccccc1C(=O)c1cccs1
**A:** 1

**Q:** # TODO verify activity at 20 µM < 200% strictly for this compound: O=C(OCCc1ccccc1)[C@@H]1CCCC[C@H]1C(=O)c1cccs1 (relative stereo)
**A:** 0
